# assayed target: Type II 5α-Reductase from Human Prostate (Homo sapiens, UniProt P31213)
# Construct: The same procedure as above was used for preparations using tissue from prostate surgery; from tissue; host or cells: human prostate tissue from surgery, homogenate, 100,000×g pellet
# Sequence (P31213 1-254): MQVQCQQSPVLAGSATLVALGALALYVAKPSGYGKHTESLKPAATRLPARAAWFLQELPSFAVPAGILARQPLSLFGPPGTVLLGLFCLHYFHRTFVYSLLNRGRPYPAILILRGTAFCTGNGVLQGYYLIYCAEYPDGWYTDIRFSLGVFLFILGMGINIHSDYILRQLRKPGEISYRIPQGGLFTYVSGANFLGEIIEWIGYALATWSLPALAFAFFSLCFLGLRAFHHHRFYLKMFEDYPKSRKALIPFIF
# experimental protocol: Human Type II 5α-reductase assay (conversion of [3H]-testosterone to 5α-reduced metabolites)
# Type: biochemical
# test parameters: pH 5.5, 0.3 μM; sodium acetate pH 5.5, 25°, 30 min; compared to control reaction mixtures; read-out: percent inhibition of Type II AR
measurement name: inhibition at 0.3 µM (%)

Here are 5 compounds together with their reported answers.
CSc1cccc(-c2ccc3c(c2)CC[C@H]2N(C)C(=O)CC[C@]32C)c1 [Example 212] :: 31
CN1C(=O)CC[C@]2(C)c3ccc(-c4ccc(Cl)s4)cc3CC[C@@H]12 [Example 218] :: 35
CN1C(=O)CC[C@]2(C)c3ccc(Sc4ccc(Cl)cc4)cc3CC[C@@H]12 [Example 95] :: 35
C[C@]12C=CC(=O)N[C@@H]1CCc1cc(-c3cccc4ccccc34)ccc12 [Example 140] :: 20
CN1C(=O)CC[C@]2(C)c3ccc(Sc4nc5cc([N+](=O)[O-])ccc5s4)cc3CC[C@@H]12 [Example 160] :: 38

(1) CN1C(=O)CC[C@]2(C)c3ccc(-c4ccccc4[N+](=O)[O-])cc3CC[C@@H]12 [Example 124]
(2) CN1C(=O)CC[C@]2(C)c3ccc(NC(=O)c4cccc(N)c4)cc3CC[C@@H]12 [Example 270]
(3) Cc1cccc(Sc2ccc3c(c2)CC[C@H]2N(C)C(=O)CC[C@]32C)c1 [Example 102]
In: hey, can you rank those compounds up there by inhibition at 0.3 µM? biggest number first please Lab note: record answer as labels in requested order.
Out: 3, 1, 2

* * *

# assayed target: Type I 5α-Reductase from Human Scalp (Homo sapiens, UniProt P18405)
# Construct: Scalp punch biopsies from graft recipient sites were obtained from human hair transplant procedures; from tissue; host or cells: human scalp punch biopsies (hair transplant graft recipient sites), homogenate, 100,000×g pellet
# Sequence (P18405 whole entry): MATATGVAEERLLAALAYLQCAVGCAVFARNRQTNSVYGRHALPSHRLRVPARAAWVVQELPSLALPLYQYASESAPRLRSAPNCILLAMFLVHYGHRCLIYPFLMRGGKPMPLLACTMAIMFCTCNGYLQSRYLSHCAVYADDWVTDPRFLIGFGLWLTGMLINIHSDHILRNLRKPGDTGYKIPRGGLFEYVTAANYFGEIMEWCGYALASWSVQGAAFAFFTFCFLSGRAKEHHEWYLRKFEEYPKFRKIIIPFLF
# experimental protocol: Human Type I 5α-reductase assay (conversion of [3H]-testosterone to 5α-reduced metabolites)
# Format: biochemical
# test parameters: pH 7.5, 0.3 μM; 50 nM [3H]-testosterone, pH 7.5, 25°, 180 min; compared to control reaction mixtures; read-out: percent inhibition of Type I AR
measurement name: inhibition at 0.3 µM (%)

CN1C(=O)CC[C@]2(C)c3ccc(-c4ccc([N+](=O)[O-])cc4)cc3CC[C@@H]12 [Example 119] :: 84
CN1C(=O)CC[C@]2(C)c3ccc(-c4ccc(C(C)(C)C)cc4)cc3CC[C@@H]12 [Example 75] :: 63
COc1ccccc1-c1ccc2c(c1)CC[C@H]1N(C)C(=O)CC[C@]21C [Example 39] :: 81
CN1C(=O)CC[C@]2(C)c3ccc(SCc4ccccc4)cc3CC[C@@H]12 [Example 136] :: 100
CN1C(=O)CC[C@]2(C)c3ccc(-c4ccc(NC(=O)C(C)(C)C)c5ccccc45)cc3CC[C@@H]12 [Example 32] :: 71
CN1C(=O)CC[C@]2(C)c3ccc(-c4ccc(C(=O)CCCCl)cc4)cc3CC[C@@H]12 [Example 221] :: 95
CN1C(=O)CC[C@]2(C)c3ccc(CSc4nc5ccccc5s4)cc3CC[C@@H]12 [Example 138] :: 88
Cc1cccc(Sc2ccc3c(c2)CC[C@H]2N(C)C(=O)CC[C@]32C)c1 [Example 102] :: 92

(A) CN1C(=O)CC[C@]2(C)c3ccc(-c4cc(F)c(F)c(F)c4)cc3CC[C@@H]12 [Example 206]
(B) CN1C(=O)CC[C@]2(C)c3ccc(-c4cc(C(F)(F)F)ccc4Cl)cc3CC[C@@H]12 [Example 33]
(C) Cc1ccccc1Sc1ccc2c(c1)CC[C@H]1NC(=O)CC[C@]21C [Example 9]
In: hey, can you rank those molecules up there by inhibition at 0.3 µM? biggest number first please Lab note: record answer as labels in requested order.
Out: A, B, C
(A: 97%, B: 55%, C: 3%)

(P) CCCCc1ccc(-c2ccc3c(c2)CC[C@H]2N(C)C(=O)CC[C@]32C)cc1 [Example 76]
(Q) CN1C(=O)CC[C@]2(C)c3ccc(Sc4cncc5ccccc45)cc3CC[C@@H]12 [Example 114]
In: Which gives the smaller inhibition at 0.3 µM number: P or Q ? Give the label under which the chosen entry appears.
Out: Q
(Q: 55%, P: 83%)

* * *

# assayed target: Type II 5α-Reductase from Human Prostate (Homo sapiens)
# Construct: The same procedure as above was used for preparations using tissue from prostate surgery; from tissue; host or cells: human prostate tissue from surgery, homogenate, 100,000×g pellet
# Sequence (P31213 1-254): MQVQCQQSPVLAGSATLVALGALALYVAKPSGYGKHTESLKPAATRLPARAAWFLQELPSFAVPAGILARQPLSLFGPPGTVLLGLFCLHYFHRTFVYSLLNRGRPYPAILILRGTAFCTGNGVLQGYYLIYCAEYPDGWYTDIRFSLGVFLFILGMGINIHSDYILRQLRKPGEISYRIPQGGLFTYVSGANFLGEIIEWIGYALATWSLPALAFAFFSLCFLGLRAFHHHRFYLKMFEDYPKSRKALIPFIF
# experimental protocol: Human Type II 5α-reductase assay (conversion of [3H]-testosterone to 5α-reduced metabolites)
# Type: biochemical
# test parameters: pH 5.5, 0.3 μM; sodium acetate pH 5.5, 25°, 30 min; compared to control reaction mixtures; read-out: percent inhibition of Type II AR
measurement name: inhibition at 0.3 µM (%)

CN1C(=O)CC[C@]2(C)c3ccc(-c4ccc(F)c(Cl)c4)cc3CC[C@@H]12 :: 43

(P) CN1C(=O)CC[C@]2(C)c3ccc(Sc4ccncc4)cc3CC[C@@H]12
(Q) CN1C(=O)CC[C@]2(C)c3ccc(-c4ccc5cc(OCc6ccccc6)ccc5c4)cc3CC[C@@H]12
(R) COc1cccc2sc(Sc3ccc4c(c3)CC[C@H]3N(C)C(=O)CC[C@]43C)nc12
In: hey, can you rank those molecules up there by inhibition at 0.3 µM? biggest number first please Lab note: record answer as labels in requested order.
Out: R, Q, P

* * *

# assayed target: Type I 5α-Reductase from Human Scalp (Homo sapiens, UniProt P18405)
# Construct: Scalp punch biopsies from graft recipient sites were obtained from human hair transplant procedures; from tissue; host or cells: human scalp punch biopsies (hair transplant graft recipient sites), homogenate, 100,000×g pellet
# experimental protocol: Human Type I 5α-reductase assay (conversion of [3H]-testosterone to 5α-reduced metabolites)
# Assay type: biochemical
# test parameters: pH 7.5, 0.3 μM; 50 nM [3H]-testosterone, pH 7.5, 25°, 180 min; compared to control reaction mixtures; read-out: percent inhibition of Type I AR
measurement name: inhibition at 0.3 µM (%)

CC(C)c1cccc2sc(-c3ccc4c(c3)CC[C@H]3N(C)C(=O)CC[C@]43C)nc12 [Example 264] :: 90
CN1C(=O)CC[C@]2(C)c3ccc(C(=O)Nc4ccccc4)cc3CC[C@@H]12 [Example 143] :: 63
COc1cccc2sc(Sc3ccc4c(c3)CC[C@H]3N(C)C(=O)CC[C@]43C)nc12 [Example 182] :: 63

(I) CN1C(=O)CC[C@]2(C)c3ccc(-c4ccc5c6c(cccc46)C(=O)N(CCN4CCOCC4)C5=O)cc3CC[C@@H]12 [Example 234]
(II) CN1C(=O)CC[C@]2(C)c3ccc(-c4ccc5c(c4)Cc4ccccc4-5)cc3CC[C@@H]12 [Example 131]
In: So which one has the bigger inhibition at 0.3 µM here, I or II ? Give the label under which the chosen entry appears.
Out: I

* * *

# assayed target: Type I 5α-Reductase from Human Scalp (Homo sapiens)
# Construct: Scalp punch biopsies from graft recipient sites were obtained from human hair transplant procedures; from tissue; host or cells: human scalp punch biopsies (hair transplant graft recipient sites), homogenate, 100,000×g pellet
# experimental protocol: Human Type I 5α-reductase assay (conversion of [3H]-testosterone to 5α-reduced metabolites)
# Type: biochemical
# test parameters: pH 7.5, 0.3 μM; 50 nM [3H]-testosterone, pH 7.5, 25°, 180 min; compared to control reaction mixtures; read-out: percent inhibition of Type I AR
measurement name: inhibition at 0.3 µM (%)

CN1C(=O)CC[C@]2(C)c3ccc(-c4c(F)cccc4F)cc3CC[C@@H]12 :: 77

(P) CN1C(=O)CC[C@]2(C)c3ccc(Sc4ccncc4)cc3CC[C@@H]12
(Q) CN1C(=O)CC[C@]2(C)c3ccc(-c4ccc(C(N)=O)cc4)cc3CC[C@@H]12
(R) COc1ccccc1Sc1ccc2c(c1)CC[C@H]1NC(=O)CC[C@]21C
In: hey, can you rank those molecules up there by inhibition at 0.3 µM? biggest number first please Lab note: record answer as labels in requested order.
Out: Q, P, R
(Q: 64%, P: 31%, R: 16%)
